# assayed target: NEK6(h) (Homo sapiens)
# Sequence (Q9HC98 whole entry): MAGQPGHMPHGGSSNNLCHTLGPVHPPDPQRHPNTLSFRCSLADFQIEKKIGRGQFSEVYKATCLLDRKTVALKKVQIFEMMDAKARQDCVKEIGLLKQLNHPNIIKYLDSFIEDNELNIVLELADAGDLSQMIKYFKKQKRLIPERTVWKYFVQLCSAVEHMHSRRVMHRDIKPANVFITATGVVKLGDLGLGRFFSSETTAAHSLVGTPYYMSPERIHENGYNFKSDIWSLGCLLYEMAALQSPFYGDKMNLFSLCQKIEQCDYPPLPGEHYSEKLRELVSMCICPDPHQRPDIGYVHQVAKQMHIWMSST
# test details: Kinase Profiling Assay
# Format: biochemical
# condition description: 100 μM
value type: % activity (%)
# value in %; strip the unit string

Known % activity results, listed for orientation:
{"macromolecule sequence": "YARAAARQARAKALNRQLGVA [MMI-0200]", "assayed target": "NEK6(h) (Homo sapiens)", "% activity, %": 98}
{"macromolecule sequence": "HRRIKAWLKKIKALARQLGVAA [MMI-0500]", "assayed target": "NEK6(h) (Homo sapiens)", "% activity, %": 49}
{"macromolecule sequence": "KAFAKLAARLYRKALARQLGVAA [MMI-0400]", "assayed target": "NEK6(h) (Homo sapiens)", "% activity, %": 85}

For the sequence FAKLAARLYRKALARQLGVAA [MMI-0300] , the measured % activity on NEK6(h) (Homo sapiens) was 82

Reference source for all entries: patent US20190134153A1
